The measurements presented in this section are drawn from paper PMC6101970.

IC50 values for the compounds below.
Molecular target: ATR/ATRIP (human) (Homo sapiens)
Sequence (Q13535 whole entry): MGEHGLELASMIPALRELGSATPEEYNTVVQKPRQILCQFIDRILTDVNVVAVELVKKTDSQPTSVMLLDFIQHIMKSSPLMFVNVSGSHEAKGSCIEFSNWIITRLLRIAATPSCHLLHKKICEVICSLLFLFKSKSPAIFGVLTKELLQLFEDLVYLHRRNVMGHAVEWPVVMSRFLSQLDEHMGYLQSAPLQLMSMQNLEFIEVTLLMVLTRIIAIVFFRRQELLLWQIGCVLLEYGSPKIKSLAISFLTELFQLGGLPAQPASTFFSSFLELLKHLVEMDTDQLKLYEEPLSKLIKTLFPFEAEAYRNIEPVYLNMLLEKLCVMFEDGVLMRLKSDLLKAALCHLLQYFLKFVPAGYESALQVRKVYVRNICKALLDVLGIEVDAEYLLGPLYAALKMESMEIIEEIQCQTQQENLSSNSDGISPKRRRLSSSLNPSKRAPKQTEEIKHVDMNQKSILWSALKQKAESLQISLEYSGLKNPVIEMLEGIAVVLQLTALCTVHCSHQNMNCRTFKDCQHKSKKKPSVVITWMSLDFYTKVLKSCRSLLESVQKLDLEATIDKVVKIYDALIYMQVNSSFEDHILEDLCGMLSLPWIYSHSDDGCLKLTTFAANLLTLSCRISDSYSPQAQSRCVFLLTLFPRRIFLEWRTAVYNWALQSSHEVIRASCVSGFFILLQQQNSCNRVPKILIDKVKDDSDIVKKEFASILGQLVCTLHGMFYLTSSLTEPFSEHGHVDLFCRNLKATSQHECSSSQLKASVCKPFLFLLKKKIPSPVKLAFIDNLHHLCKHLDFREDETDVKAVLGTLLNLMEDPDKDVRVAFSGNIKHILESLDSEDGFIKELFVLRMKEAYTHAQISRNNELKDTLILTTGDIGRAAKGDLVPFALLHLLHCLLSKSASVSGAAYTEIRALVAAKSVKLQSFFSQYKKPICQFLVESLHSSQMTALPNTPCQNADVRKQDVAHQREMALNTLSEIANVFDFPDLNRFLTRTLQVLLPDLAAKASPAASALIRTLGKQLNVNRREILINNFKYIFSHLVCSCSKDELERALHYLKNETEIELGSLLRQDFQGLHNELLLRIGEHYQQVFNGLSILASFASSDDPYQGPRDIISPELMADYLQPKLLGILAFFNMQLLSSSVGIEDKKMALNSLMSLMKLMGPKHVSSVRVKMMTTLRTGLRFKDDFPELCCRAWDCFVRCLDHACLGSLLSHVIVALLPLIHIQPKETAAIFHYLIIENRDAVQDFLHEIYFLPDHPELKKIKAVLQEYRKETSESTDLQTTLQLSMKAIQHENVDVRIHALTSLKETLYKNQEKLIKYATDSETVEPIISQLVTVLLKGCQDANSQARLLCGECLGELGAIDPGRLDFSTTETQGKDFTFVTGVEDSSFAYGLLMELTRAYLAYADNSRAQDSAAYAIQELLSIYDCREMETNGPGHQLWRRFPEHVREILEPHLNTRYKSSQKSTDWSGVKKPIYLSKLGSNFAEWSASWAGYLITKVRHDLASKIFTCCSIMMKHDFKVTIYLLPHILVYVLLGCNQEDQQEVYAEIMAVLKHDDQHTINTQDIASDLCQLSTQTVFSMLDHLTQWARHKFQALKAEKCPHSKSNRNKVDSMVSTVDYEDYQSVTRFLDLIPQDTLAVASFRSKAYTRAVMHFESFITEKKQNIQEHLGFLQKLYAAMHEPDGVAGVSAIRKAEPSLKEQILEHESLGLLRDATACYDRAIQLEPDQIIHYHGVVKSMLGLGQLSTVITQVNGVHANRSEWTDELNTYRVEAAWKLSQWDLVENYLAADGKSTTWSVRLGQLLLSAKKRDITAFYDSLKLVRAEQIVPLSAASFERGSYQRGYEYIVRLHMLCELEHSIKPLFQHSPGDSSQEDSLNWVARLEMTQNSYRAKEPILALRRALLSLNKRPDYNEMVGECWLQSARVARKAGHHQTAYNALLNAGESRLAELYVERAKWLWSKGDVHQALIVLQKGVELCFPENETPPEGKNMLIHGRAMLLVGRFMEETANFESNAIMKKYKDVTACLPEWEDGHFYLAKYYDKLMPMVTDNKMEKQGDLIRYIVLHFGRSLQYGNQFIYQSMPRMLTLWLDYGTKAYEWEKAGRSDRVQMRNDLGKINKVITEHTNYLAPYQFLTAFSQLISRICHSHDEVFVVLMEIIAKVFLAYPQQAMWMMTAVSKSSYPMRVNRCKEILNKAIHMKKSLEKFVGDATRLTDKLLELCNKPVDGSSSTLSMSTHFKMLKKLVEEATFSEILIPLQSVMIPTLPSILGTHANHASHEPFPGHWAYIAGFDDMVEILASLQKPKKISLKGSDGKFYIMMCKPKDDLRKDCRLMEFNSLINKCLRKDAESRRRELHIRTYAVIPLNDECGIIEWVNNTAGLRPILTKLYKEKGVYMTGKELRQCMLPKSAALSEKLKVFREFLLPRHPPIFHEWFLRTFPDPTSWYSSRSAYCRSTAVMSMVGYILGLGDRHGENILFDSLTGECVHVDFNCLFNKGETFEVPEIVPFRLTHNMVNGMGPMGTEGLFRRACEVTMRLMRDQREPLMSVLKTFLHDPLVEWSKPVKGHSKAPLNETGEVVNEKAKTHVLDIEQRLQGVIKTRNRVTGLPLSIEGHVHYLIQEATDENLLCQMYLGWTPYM
Sequence (Q8WXE1 whole entry partner): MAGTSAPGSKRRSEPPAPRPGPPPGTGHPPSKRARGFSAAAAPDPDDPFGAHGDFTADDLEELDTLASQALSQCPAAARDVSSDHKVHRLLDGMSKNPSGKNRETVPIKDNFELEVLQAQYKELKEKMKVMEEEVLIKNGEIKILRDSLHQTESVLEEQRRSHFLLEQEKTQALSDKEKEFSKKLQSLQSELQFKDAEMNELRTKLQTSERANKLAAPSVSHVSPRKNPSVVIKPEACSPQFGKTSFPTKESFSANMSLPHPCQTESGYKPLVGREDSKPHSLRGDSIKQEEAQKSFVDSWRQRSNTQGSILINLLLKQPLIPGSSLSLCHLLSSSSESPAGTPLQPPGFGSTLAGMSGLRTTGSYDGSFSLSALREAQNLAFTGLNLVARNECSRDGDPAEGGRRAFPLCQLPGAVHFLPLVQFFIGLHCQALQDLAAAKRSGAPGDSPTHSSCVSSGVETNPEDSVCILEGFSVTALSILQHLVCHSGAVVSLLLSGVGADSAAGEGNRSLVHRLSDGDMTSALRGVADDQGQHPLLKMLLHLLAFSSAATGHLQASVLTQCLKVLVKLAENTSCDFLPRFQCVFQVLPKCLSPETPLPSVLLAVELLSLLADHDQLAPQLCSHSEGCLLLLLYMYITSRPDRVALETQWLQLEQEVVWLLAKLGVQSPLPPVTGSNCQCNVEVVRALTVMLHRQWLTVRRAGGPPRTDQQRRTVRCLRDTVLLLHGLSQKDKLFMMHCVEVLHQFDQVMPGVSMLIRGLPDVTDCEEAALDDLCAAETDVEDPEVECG
Experiment: HTRF kinase assay, GST-cMyc-p53 Ser15 phosphorylation

compound	readout label	result
Cc1sc2c(c1C)C(c1ccc(Cl)cc1)=N[C@@H](CC(=O)OC(C)(C)C)c1nnc(C)n1-2 [JQ1]	IC50	> 10 µM

Just so you know, measured IC50 for COc1nnc2ccc(N3CCC(c4ccc(OCCN5CCN(C)C(=O)[C@H]5C)cc4)CC3)nn12 [AZD5153] came out at > 10 µM
